Where do the numbers come from? From PubChem BioAssay (NCI).

- PROTOCOL_DETAILS: NCI Yeast Anticancer Drug Screen. Data for the mec2-1 strain (AID 157)
- APPLIED_CONDITIONS: S. cerevisiae mec2-1 strain, at 50.0 µM
This is part of a sample that, as a whole, favours compounds with a hit. Of some 79,000 tested, about 15% had one in any assay. Activity calls are given as the source filed them. Cut-off read from the data, not from the text of the source: active = growth inhibition above about 70%; inactive = the rest.
Labels: 1.0 for active, 0.0 for inactive

{"columns": ["COMPOUND", "LABEL"],
 "data": [
  ["CN1CCNCC1", 0.0],
  ["O=C(O)CCc1ccc(NP(=O)(Oc2ccccc2)N(CCCl)CCCl)cc1 (stereo unspecified)", 0.0],
  ["CCC(=O)OC1(c2ccccc2)CCN(C/C=C/c2cccc3ccccc23)CC1", 1.0],
  ["C1CCC(N2CSC3CCCCC32)CC1 (stereo unspecified)", 0.0],
  ["[C-]#[O+].[C-]#[O+].[C-]#[O+].[Cr].c1ccc([PH+](CC[As](c2ccccc2)c2ccccc2)CC[As](c2ccccc2)c2ccccc2)cc1", 0.0],
  ["CN(C)P(=O)(N(C)C)N(C)C.[CH3][Sn]([CH3])([Cl])[Cl]", 0.0],
  ["[CH3][Sb]([CH3])([CH3])([I])[I]", 0.0],
  ["COc1cc(C=O)cc(OC)c1OC", 0.0],
  ["CCOC(=S)S.[Cu+2]", 0.0],
  ["O=S(=O)(Nc1ccc(-c2ccccc2)cc1)c1ccc([As](=O)(O)O)cc1", 0.0],
  ["COc1cc(C=C2C(=O)NC(=O)NC2=O)ccc1O", 0.0],
  ["COC12C(COC(N)=O)C3=C(C(=O)C(C)=C(N4CC4)C3=O)N1CC1NC12 (stereo unspecified)", 1.0],
  ["CCC1([N+](=O)[O-])COP(=O)(NCc2ccncc2)OC1 (stereo unspecified)", 0.0],
  ["CCN1C(=O)NC(=O)C(C)(N2CCCCC2)C1=O (stereo unspecified)", 0.0],
  ["CC1(c2cccc(N(CCCl)CCCl)c2)NC(=O)NC1=O (stereo unspecified)", 0.0],
  ["CCC1CN1CCC(=O)Nc1ccccc1 (stereo unspecified)", 0.0],
  ["CCC[CH2][Sn]([CH2]CCC)([O]C(=O)CN)[O]C(=O)CN", 0.0],
  ["C#CCOCC(O)C[As](=O)(O)c1cccc(Cl)c1 (stereo unspecified)", 0.0],
  ["CCC(/C=N/N=C(N)N)=N\\N=C(N)N", 0.0],
  ["CC(=O)Nc1cc(Cl)c([N+](=O)[O-])cc1C", 0.0],
  ["C[N+]1(CCCl)CCc2ccc([N+](=O)[O-])cc2C1 (stereo unspecified)", 0.0]
]}

---

Listed here are molecules together with their documented growth inhibition.
- PROTOCOL_DETAILS: NCI Yeast Anticancer Drug Screen. Data for the mlh1 rad18 strain (AID 175)
- APPLIED_CONDITIONS: S. cerevisiae mlh1 rad18 strain growth inhibition; at 50.0 µM; hits give high values
- Experimental: Growth inhibition of yeast strains with defined genetic alterations is measured as a screen for potential anti-cancer activity. Selected strains with alterations in DNA damage repair or cell cycle control were exposed to compounds and growth inhibition was measured relative to vehicle treated controls. The strain used in this assay is mlh1 rad18
Compounds without any hit were thinned out: in the full panel of roughly 79,000, 15% have a hit.

{"columns": ["MOLECULE", "UOM", "growth inhibition"],
 "data": [
  ["C[Se]c1ncnc2c1c(C#N)cn2C1OC(CO)C(O)C1O (stereo not given)", "%", 2.65],
  ["COc1cc2c(cc1OC)-c1c3c(cc4c1[C@@H](C2)N(C)CC4)OCO3", "%", -17.6],
  ["O=NNc1cccnc1", "%", -38],
  ["CC(C)c1cccc(C(C)C)c1O", "%", 12.9],
  ["CN(C)CCNc1nc2c(no[n+]2[O-])c2ccccc12", "%", -19.9],
  ["O=C(O)c1cc(Cl)nc(Cl)c1", "%", -14.8],
  ["CC1=CC(=Nc2ccc(N(CCCl)CCCl)cc2)C=CC1=O", "%", 5.35],
  ["CCOC(=S)S.[Pb]", "%", 9.7],
  ["CNC(=O)Oc1cccc(N)c1", "%", -0.05],
  ["S=P(N1CCCCC1)(N1CCCCC1)N1CCCCC1", "%", -7.1],
  ["CCOC(=O)/C=C1/C=C(C)CC(C)(C)C1 (tested in a mixture with another compound)", "%", 1.7],
  ["ClCCCN1CCN(CCCl)CC1", "%", -21.5],
  ["CCOC(=O)C[Se]CC(=O)OCC", "%", 28.3],
  ["CCCCOP(=S)(N1CCCCC1)N1CCCCC1", "%", 0.95],
  ["O=C(Cc1ccc2c(c1)OCO2)c1cn(C(=O)Cc2ccc3c(c2)OCO3)c2ccccc12", "%", 26.4],
  ["CC(=O)C(N)Cc1ccccc1 (stereo not given)", "%", 15.2],
  ["CCC1NCCc2cc(OC)c(O)cc21 (stereo not given)", "%", -11.4],
  ["O=C1CC(=O)NC(=S)N1", "%", -5.75],
  ["O=[As](c1ccccc1Br)(c1ccccc1Br)c1ccccc1Br", "%", 20.9],
  ["Cc1ccc2[nH]c(=S)n(-c3cccc(C(F)(F)F)c3)c(=O)c2c1", "%", 16.5],
  ["CCOC(=O)N(NC(=O)c1ccc(N(CCCl)CCCl)cc1)C(C)=O", "%", 30.9],
  ["CCC(=O)[O-].CCC(=O)[O-].N.N.N.N.[Co+3].[O-][Cl+3]([O-])([O-])[O-]", "%", -12.2],
  ["N#CN=C(N)NC#N", "%", 17.1],
  ["CNC(=O)CCl", "%", 6.4],
  ["CC(C)=NNC1=NC(C)(C)P(=O)(N2CCCC2C(=O)O)S1 (stereo not given)", "%", -9.2]
]}

---

- PROTOCOL_DETAILS: NCI Yeast Anticancer Drug Screen. Data for the bub3 strain (AID 167)
- APPLIED_CONDITIONS: S. cerevisiae bub3 mutant strain, at 50.0 µM
This is part of a sample that, as a whole, favours compounds with a hit. Of some 79,000 tested, about 15% had one in any assay. Activity calls are given as the source filed them. No stated cut-off is given here; in the data, active means growth inhibition above about 70%; inactive means the rest.
Labels: active, inactive

{"columns": ["COMPOUND", "LABEL"],
 "data": [
  ["CC[As](=O)(O)c1ccc(OC)c(I)c1", "inactive"],
  ["c1ccc(CCN2CCCCC2)nc1", "inactive"],
  ["CCOP(=O)(O)OCC.[Y]", "inactive"],
  ["CCCOP1(=O)C=C(C)C(Cl)=C(C)C1 (configuration not stated)", "inactive"],
  ["CC(/C=C/C1OC(=O)C=CC1C)=C\\C(C)C/C=C/C(C)=C/C(CO)C(=O)C(C)C(O)C(C)C/C(C)=C/C(=O)O (configuration not stated)", "active"],
  ["N#CC1(c2ccccc2)CCNCC1", "inactive"],
  ["[N-]=[N+]=Nc1ccnc2cc(Cl)ccc12", "inactive"],
  ["CCN(CC)C1CCCCC1", "inactive"],
  ["COc1cc2c(c(OC)c1O)-c1ccc(OC)c(=O)cc1[C@@H](NC(=O)C(F)(F)F)CC2", "inactive"],
  ["CCCCC(=O)c1cc(OC)cc(OC)c1", "inactive"],
  ["CCC(CC)CNC(=O)C(Cl)Cl", "inactive"],
  ["ClCc1ccccc1", "inactive"],
  ["CC1=CC(=Nc2ccc(N(CCCl)CCCl)cc2)C=C(C)C1=O", "inactive"],
  ["C=CCn1nnc(N)n1", "inactive"],
  ["C=CCNC(=S)/N=C/c1c(O)[nH]c(=O)[nH]c1=O", "inactive"],
  ["O=C(CCN1CC=C(c2ccccc2)CC1)c1ccc(F)cc1", "inactive"],
  ["CCC1CN1P1(=O)OCC(C)(N)CO1 (configuration not stated)", "inactive"]
]}

---

- PROTOCOL_DETAILS: NCI Yeast Anticancer Drug Screen. Data for the cln2 rad14 strain (AID 165);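 note: 0% = growth equal to vehicle treated cultures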
- APPLIED_CONDITIONS: S. cerevisiae cln2 rad14 strain, at 50.0 µM, hits give high values
The panel holds about 79,000 compounds, 15% with a hit somewhere; the sample as a whole holds those more often.
Param threshold (-10%) applies to growth inhibition; output true (1) when value >= threshold, false (0) when value < threshold.

{"columns": ["COMPOUND", "LABEL"],
 "data": [
  ["CC1(C(=O)O)OC1c1ccccc1 (configuration not stated)", "false (0)"],
  ["C=CCc1cc(OC)c2c(c1OC)OCO2", "true (1)"],
  ["CCCC[S][Sn-]([CH2]CCC)([CH2]CCC)[CH2]CCC", "true (1)"],
  ["COc1ccc(C=C(C#N)C#N)cc1OC", "false (0)"],
  ["O=C(COc1ccc(Cl)cc1)Nc1ccc(Cl)cc1C(=O)c1ccccc1", "true (1)"],
  ["C[N+](C)(Cc1ccccc1[N+](=O)[O-])c1ccc(N(CCCl)CCCl)cc1", "false (0)"],
  ["C=C(C)[C@H]1Cc2c(ccc3c2O[C@@H]2COc4cc(OC)c(OC)cc4[C@@H]2C3=O)O1", "true (1)"]
]}
